- Test system: SiHa (HPV 16+) human cervical cell line
- PROTOCOL: Antiproliferative MTT assay, SiHa
- Format: cell-based
- SETTINGS: Homo sapiens, read-out: Calculated IC50 Values (μM) [95% CI]

COMPOUND: C=C1C(=O)O[C@@H]2C[C@@H](C)C3=CC(=O)[C@](C)(O3)[C@H](OC(=O)CC(C)C)[C@@H](O)[C@@H]12
UNIT SYMBOL: µM
COMPARISON SYMBOL: =
IC50: 4.86
--
COMPOUND: C=C1C(=O)O[C@@H]2[C@@H](CC3=C4[C@@H](C[C@@H](C)/C=C\C(=O)[C@](C)(O)[C@H](OC(C)=O)[C@H]4OC(=O)CC(C)C)OC3=O)[C@@H](C)C3=CC(=O)[C@](C)(O3)[C@H](O)[C@@H](OC(=O)CC(C)C)[C@@H]12 [Compound 7, Lobatolide D]
UNIT SYMBOL: µM
COMPARISON SYMBOL: =
IC50: 6.02
--
COMPOUND: C=C1C(=O)O[C@@H]2/C=C(/C)C3=CC(=O)[C@](C)(O3)[C@H](OC(=O)CC(C)C)[C@@H](O)[C@@H]12
UNIT SYMBOL: µM
COMPARISON SYMBOL: =
IC50: 7.81
--
COMPOUND: C=C1C(=O)O[C@@H]2C[C@@H](C)/C=C\C(=O)[C@@](C)(O)[C@H](OC(C)=O)[C@@H](OC(=O)CC(C)C)[C@@H]12 [Neu B, neurolenin B, reference compound]
UNIT SYMBOL: µM
COMPARISON SYMBOL: <
IC50: 1.4
--
COMPOUND: C=C1C(=O)O[C@@H]2/C=C(/C)C3=CC(=O)[C@](C)(O3)[C@H](OC(C)=O)[C@@H](OC(=O)CC(C)C)[C@@H]12
UNIT SYMBOL: µM
COMPARISON SYMBOL: =
IC50: 2.22

----------
- System: SiHa (HPV 16+) human cervical cell line
- PROTOCOL: Antiproliferative MTT assay, SiHa
- Assay type: cell-based
- SETTINGS: Homo sapiens, 10 μM, read-out: Growth Inhibition Values (%) ± SEM
Reported inhibition at 10 µM by item:
PROPERTY NAME: inhibition at 10 µM (%)

MOLECULE: C=C1C(=O)O[C@@H]2/C=C(/C)C3=CC(=O)[C@](C)(O3)[C@H](OC(C)=O)[C@@H](OC(=O)CC(C)C)[C@@H]12
COMPARISON SYMBOL: =
REPORTED MEASUREMENT: 79.8

MOLECULE: COC[C@@H]1C(=O)O[C@@H]2C[C@@H](C)C3=CC(=O)[C@](C)(O3)[C@H](O)[C@@H](OC(=O)CC(C)C)[C@@H]12 [Compound 2, Lobatolide A]
COMPARISON SYMBOL: <
REPORTED MEASUREMENT: 20

MOLECULE: C=C1C(=O)O[C@@H]2/C=C(/C)C3=CC(=O)[C@](C)(O3)[C@H](OC(=O)CC(C)C)[C@@H](O)[C@@H]12
COMPARISON SYMBOL: =
REPORTED MEASUREMENT: 60.6

MOLECULE: C=C1C(=O)O[C@@H]2C[C@@H](C)/C=C\C(=O)[C@@](C)(O)[C@H](OC(C)=O)[C@@H](OC(=O)CC(C)C)[C@@H]12 [Neu B, neurolenin B, reference compound]
COMPARISON SYMBOL: =
REPORTED MEASUREMENT: 88.7

MOLECULE: C=C1C(=O)O[C@@H]2C[C@@H](C)C3=CC(=O)[C@](C)(O3)[C@H](OC(=O)CC(C)C)[C@@H](O)[C@@H]12
COMPARISON SYMBOL: =
REPORTED MEASUREMENT: 77.9

MOLECULE: CC(C)[C@@H]1CC[C@@]2(C)C(=O)CCC(CO)=C[C@@H]12 [Compound 10, (+)-aphanamol I]
COMPARISON SYMBOL: <
REPORTED MEASUREMENT: 20

----------
- Test system: SiHa (HPV 16+) human cervical cell line
- PROTOCOL: Antiproliferative MTT assay, SiHa
- Format: cell-based
- SETTINGS: Homo sapiens, 10 μM, read-out: Growth Inhibition Values (%) ± SEM
PROPERTY NAME: inhibition at 10 µM (%)

COMPOUND: C=C1C(=O)O[C@@H]2[C@@H](CC3=C4[C@@H](C[C@@H](C)/C=C\C(=O)[C@](C)(O)[C@H](OC(C)=O)[C@H]4OC(=O)CC(C)C)OC3=O)[C@@H](C)C3=CC(=O)[C@](C)(O3)[C@H](O)[C@@H](OC(=O)CC(C)C)[C@@H]12 [Compound 7, Lobatolide D]
COMPARISON SYMBOL: =
REPORTED MEASUREMENT: 77.2
//
COMPOUND: C=C1CC[C@@H](O)[C@]2(C)CC[C@@H](C(C)C)[C@H](O)[C@@H]12
COMPARISON SYMBOL: <
REPORTED MEASUREMENT: 20
//
COMPOUND: C=C1C(=O)OC2C=C(C)C(OC(C)=O)CC3OC3(C)CC(OC(=O)CC(C)C)C12 (stereo not shown) [Compound 6, Lobatolide C]
COMPARISON SYMBOL: =
REPORTED MEASUREMENT: 84.2
//
COMPOUND: COC[C@H]1C(=O)O[C@@H]2C[C@@H](C)/C=C\C(=O)[C@](C)(O)[C@H](OC(C)=O)[C@@H](OC(=O)CC(C)C)[C@H]21 [Compound 5, Lobatolide B]
COMPARISON SYMBOL: <
REPORTED MEASUREMENT: 20

----------
// inhibition at 10 µM lookup, one value per entry
- System: C33A (HPV negative) human cervical cell line
- PROTOCOL: Antiproliferative MTT assay, C33A
- Format: cell-based
- SETTINGS: Homo sapiens, C-33-A, read-out: Growth Inhibition Values (%) ± SEM
PROPERTY NAME: inhibition at 10 µM (%)

COMPOUND: C=C1C(=O)O[C@@H]2C[C@@H](C)C3=CC(=O)[C@](C)(O3)[C@H](OC(=O)CC(C)C)[C@@H](O)[C@@H]12
UNIT SYMBOL: %
COMPARISON SYMBOL: =
REPORTED MEASUREMENT: 90

COMPOUND: C=C1C(=O)O[C@@H]2C[C@@H](C)/C=C\C(=O)[C@@](C)(O)[C@H](OC(C)=O)[C@@H](OC(=O)CC(C)C)[C@@H]12 [Neu B, neurolenin B, reference compound]
UNIT SYMBOL: %
COMPARISON SYMBOL: =
REPORTED MEASUREMENT: 98.3

COMPOUND: C=C1CC[C@@H](O)[C@]2(C)CC[C@@H](C(C)C)[C@H](O)[C@@H]12
UNIT SYMBOL: %
COMPARISON SYMBOL: <
REPORTED MEASUREMENT: 20

COMPOUND: C=C1C(=O)OC2C=C(C)C(OC(C)=O)CC3OC3(C)CC(OC(=O)CC(C)C)C12 (stereo not shown) [Compound 6, Lobatolide C]
UNIT SYMBOL: %
COMPARISON SYMBOL: =
REPORTED MEASUREMENT: 96.5

COMPOUND: CC(C)[C@@H]1CC[C@@]2(C)C(=O)CCC(CO)=C[C@@H]12 [Compound 10, (+)-aphanamol I]
UNIT SYMBOL: %
COMPARISON SYMBOL: <
REPORTED MEASUREMENT: 20

COMPOUND: COC[C@H]1C(=O)O[C@@H]2C[C@@H](C)/C=C\C(=O)[C@](C)(O)[C@H](OC(C)=O)[C@@H](OC(=O)CC(C)C)[C@H]21 [Compound 5, Lobatolide B]
UNIT SYMBOL: %
COMPARISON SYMBOL: =
REPORTED MEASUREMENT: 50.5

COMPOUND: C=C1C(=O)O[C@@H]2/C=C(/C)C3=CC(=O)[C@](C)(O3)[C@H](OC(C)=O)[C@@H](OC(=O)CC(C)C)[C@@H]12
UNIT SYMBOL: %
COMPARISON SYMBOL: =
REPORTED MEASUREMENT: 97.3

COMPOUND: C=C1C(=O)O[C@@H]2[C@@H](CC3=C4[C@@H](C[C@@H](C)/C=C\C(=O)[C@](C)(O)[C@H](OC(C)=O)[C@H]4OC(=O)CC(C)C)OC3=O)[C@@H](C)C3=CC(=O)[C@](C)(O3)[C@H](O)[C@@H](OC(=O)CC(C)C)[C@@H]12 [Compound 7, Lobatolide D]
UNIT SYMBOL: %
COMPARISON SYMBOL: =
REPORTED MEASUREMENT: 94.7

COMPOUND: C=C1C(=O)O[C@@H]2/C=C(/C)C3=CC(=O)[C@](C)(O3)[C@H](OC(=O)CC(C)C)[C@@H](O)[C@@H]12
UNIT SYMBOL: %
COMPARISON SYMBOL: =
REPORTED MEASUREMENT: 79.2

COMPOUND: COC[C@@H]1C(=O)O[C@@H]2C[C@@H](C)C3=CC(=O)[C@](C)(O3)[C@H](O)[C@@H](OC(=O)CC(C)C)[C@@H]12 [Compound 2, Lobatolide A]
UNIT SYMBOL: %
COMPARISON SYMBOL: <
REPORTED MEASUREMENT: 20
